Below is a list of entries, each paired with its recorded TIME value.
system: Nucleic Acid; assay: Binding affinity to d(CGTACG)2 assessed as average residence time; format: nucleic-acid assay
Report as a plain number; the unit h is understood.

# count of solved cases: 3
Query block: Which TIME is reported for this compound? CC(=O)[C@]1(O)Cc2c(O)c3c(c(O)c2[C@@H](O[C@H]2C[C@H](O)[C@H](O[C@H]4C[C@H](N)[C@H](O)[C@H](C)O4)[C@H](C)O2)C1)C(=O)c1ccccc1C3=O
Result block: 5e-05

Query block: Also, COc1cccc2c1C(=O)c1c(O)c3c(c(O)c1C2=O)C[C@@](O)(C(=O)CO)C[C@@H]3O[C@H]1C[C@H](N2CCO[C@H](OC)C2)[C@H](O)[C@H](C)O1 please.
Result block: 0.00139

Query block: Also, COc1cccc2c1C(=O)c1c(O)c3c(c(O)c1C2=O)C[C@@](O)(C(=O)CO)C[C@@H]3O[C@H]1C[C@H](N)[C@H](O)[C@H](C)O1 please.
Result block: 0.000347

Next:
Query block: Which TIME is reported for this compound? C[C@@H]1O[C@@H](O[C@@H]2[C@H](C)O[C@@H](O[C@H]3C[C@](O)(C(=O)CO)Cc4c(O)c5c(c(O)c43)C(=O)c3ccccc3C5=O)C[C@@H]2O)C[C@H](N)[C@@H]1O
Result block: 5.83e-05
